These data points were gathered from the supplement of paper PMC9112550.

# Test system: Escherichia coli TOP10
# protocol description: shrunken log2 fold change of peptide-encoding DNA abundance (4.5 h post-induction vs induction); higher = less antimicrobial activity (less host growth inhibition)
# condition info: time post-induction: 4.5 h; library: site-saturation at positions 5, 18, 19, 20
Would you mind labelling by shrunken log2 fold change? At or over -0.07 is 1.0, under is 0.0.

{"polymer sequence": "RRIRTRPPRLPRPRPRPFPKPRP", "target or test system": "Escherichia coli TOP10", "label value": 0.0}
{"polymer sequence": "RRIRNRPPRLPRPRPRPCGHPRP", "target or test system": "Escherichia coli TOP10", "label value": 1.0}
{"polymer sequence": "RRIRCRPPRLPRPRPRPVTIPRP", "target or test system": "Escherichia coli TOP10", "label value": 0.0}
{"polymer sequence": "RRIRCRPPRLPRPRPRPSKTPRP", "target or test system": "Escherichia coli TOP10", "label value": 0.0}
{"polymer sequence": "RRIRVRPPRLPRPRPRPPGTPRP", "target or test system": "Escherichia coli TOP10", "label value": 1.0}
{"polymer sequence": "RRIRLRPPRLPRPRPRPKFGPRP", "target or test system": "Escherichia coli TOP10", "label value": 1.0}
{"polymer sequence": "RRIRNRPPRLPRPRPRPNTPPRP", "target or test system": "Escherichia coli TOP10", "label value": 0.0}
{"polymer sequence": "RRIRERPPRLPRPRPRPTDTPRP", "target or test system": "Escherichia coli TOP10", "label value": 0.0}

* * *

# System: Escherichia coli TOP10
# protocol description: shrunken log2 fold change of peptide-encoding DNA abundance (4.5 h post-induction vs induction); higher = less antimicrobial activity (less host growth inhibition)
# condition info: time post-induction: 4.5 h; library: site-saturation at positions 5, 18, 19, 20
reported endpoint: shrunken log2 fold change

{"polymer sequence": "RRIRDRPPRLPRPRPRPFYMPRP", "assay result": -0.735}
{"polymer sequence": "RRIRERPPRLPRPRPRPWHHPRP", "assay result": -0.326}
{"polymer sequence": "RRIRLRPPRLPRPRPRPFWSPRP", "assay result": -0.162}
{"polymer sequence": "RRIRSRPPRLPRPRPRPLNHPRP", "assay result": -0.554}
{"polymer sequence": "RRIRRRPPRLPRPRPRPLMPPRP", "assay result": 0.297}
{"polymer sequence": "RRIRYRPPRLPRPRPRPQVHPRP", "assay result": -0.0163}
{"polymer sequence": "RRIRSRPPRLPRPRPRPNDTPRP", "assay result": -0.437}
{"polymer sequence": "RRIRQRPPRLPRPRPRPLRMPRP", "assay result": 0.483}
{"polymer sequence": "RRIRERPPRLPRPRPRPNCCPRP", "assay result": -0.00112}
{"polymer sequence": "RRIRHRPPRLPRPRPRPTELPRP", "assay result": 0.0215}
{"polymer sequence": "RRIRWRPPRLPRPRPRPATIPRP", "assay result": -0.0366}
{"polymer sequence": "RRIRNRPPRLPRPRPRPMKPPRP", "assay result": -0.00018}
{"polymer sequence": "RRIRFRPPRLPRPRPRPMCEPRP", "assay result": -0.236}
{"polymer sequence": "RRIRARPPRLPRPRPRPTDNPRP", "assay result": 0.152}
{"polymer sequence": "RRIRMRPPRLPRPRPRPCCIPRP", "assay result": -0.351}
{"polymer sequence": "RRIRSRPPRLPRPRPRPVADPRP", "assay result": 0.0874}
{"polymer sequence": "RRIRGRPPRLPRPRPRPKPFPRP", "assay result": 0.601}
{"polymer sequence": "RRIRPRPPRLPRPRPRPPLEPRP", "assay result": 0.179}
{"polymer sequence": "RRIRDRPPRLPRPRPRPRHAPRP", "assay result": 0.324}
{"polymer sequence": "RRIRMRPPRLPRPRPRPKKTPRP", "assay result": 1.46}
{"polymer sequence": "RRIRHRPPRLPRPRPRPHCFPRP", "assay result": -0.312}
{"polymer sequence": "RRIRRRPPRLPRPRPRPWYVPRP", "assay result": 0.0457}
{"polymer sequence": "RRIRVRPPRLPRPRPRPCWMPRP", "assay result": -0.46}
{"polymer sequence": "RRIRNRPPRLPRPRPRPFSDPRP", "assay result": -0.246}
{"polymer sequence": "RRIRYRPPRLPRPRPRPKATPRP", "assay result": -0.00674}
{"polymer sequence": "RRIRDRPPRLPRPRPRPWYWPRP", "assay result": 0.000762}
{"polymer sequence": "RRIRKRPPRLPRPRPRPRHTPRP", "assay result": 0.328}

* * *

# System: Escherichia coli TOP10
# protocol description: shrunken log2 fold change of peptide-encoding DNA abundance (4.5 h post-induction vs induction); higher = less antimicrobial activity (less host growth inhibition)
# condition info: time post-induction: 4.5 h; library: site-saturation at positions 5, 18, 19, 20
List of shrunken log2 fold change values.
reported endpoint: shrunken log2 fold change

{"polymer sequence": "RRIRSRPPRLPRPRPRPPEQPRP", "reported endpoint": "shrunken log2 fold change", "assay result": 0.306}
{"polymer sequence": "RRIRKRPPRLPRPRPRPIDQPRP", "reported endpoint": "shrunken log2 fold change", "assay result": 0.122}
{"polymer sequence": "RRIRDRPPRLPRPRPRPGMDPRP", "reported endpoint": "shrunken log2 fold change", "assay result": 0.216}
{"polymer sequence": "RRIRSRPPRLPRPRPRPALSPRP", "reported endpoint": "shrunken log2 fold change", "assay result": 0.497}

* * *

List of shrunken log2 fold change values.
# System: Escherichia coli TOP10;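 further: peptides expressed intracellularly from a pBAD plasmid library in pooled LB shake-flask culture, induced with 0.3% L-arabinose, DNA abundance read by NGS, three biological replicates, DESeq2 with apeglm shrinkage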
# protocol description: shrunken log2 fold change of peptide-encoding DNA abundance (4.5 h post-induction vs induction); higher = less antimicrobial activity (less host growth inhibition)
# condition info: time post-induction: 4.5 h; library: site-saturation at positions 5, 18, 19, 20
reported endpoint: shrunken log2 fold change

{"polymer sequence": "RRIRGRPPRLPRPRPRPCAQPRP", "assay result": 1.07}
{"polymer sequence": "RRIRWRPPRLPRPRPRPMYCPRP", "assay result": 0.0174}
{"polymer sequence": "RRIRTRPPRLPRPRPRPDFLPRP", "assay result": -0.169}
{"polymer sequence": "RRIRTRPPRLPRPRPRPVLRPRP", "assay result": 0.11}
{"polymer sequence": "RRIRKRPPRLPRPRPRPNLWPRP", "assay result": 0.492}
{"polymer sequence": "RRIRGRPPRLPRPRPRPQYQPRP", "assay result": -0.191}
{"polymer sequence": "RRIRNRPPRLPRPRPRPVRPPRP", "assay result": 0.555}
{"polymer sequence": "RRIRSRPPRLPRPRPRPCVEPRP", "assay result": 0.0654}
{"polymer sequence": "RRIRVRPPRLPRPRPRPSDRPRP", "assay result": 0.194}
{"polymer sequence": "RRIRARPPRLPRPRPRPWHAPRP", "assay result": 0.288}
{"polymer sequence": "RRIRTRPPRLPRPRPRPRKNPRP", "assay result": 0.136}
{"polymer sequence": "RRIRYRPPRLPRPRPRPVNEPRP", "assay result": -0.109}
{"polymer sequence": "RRIRCRPPRLPRPRPRPMYRPRP", "assay result": -0.319}
{"polymer sequence": "RRIRKRPPRLPRPRPRPQSDPRP", "assay result": 0.247}
{"polymer sequence": "RRIRERPPRLPRPRPRPWNDPRP", "assay result": -0.342}
{"polymer sequence": "RRIRQRPPRLPRPRPRPDVPPRP", "assay result": 0.0169}
{"polymer sequence": "RRIRARPPRLPRPRPRPQVVPRP", "assay result": -0.0726}
{"polymer sequence": "RRIRRRPPRLPRPRPRPCSNPRP", "assay result": -0.166}
{"polymer sequence": "RRIRVRPPRLPRPRPRPKSWPRP", "assay result": 0.224}
{"polymer sequence": "RRIRSRPPRLPRPRPRPINSPRP", "assay result": 0.0337}
{"polymer sequence": "RRIRPRPPRLPRPRPRPHWIPRP", "assay result": -0.212}
{"polymer sequence": "RRIRTRPPRLPRPRPRPFCAPRP", "assay result": -0.00433}
{"polymer sequence": "RRIRERPPRLPRPRPRPHHVPRP", "assay result": 0.00979}
{"polymer sequence": "RRIRMRPPRLPRPRPRPCVMPRP", "assay result": 0.0536}
{"polymer sequence": "RRIRYRPPRLPRPRPRPPWVPRP", "assay result": -0.209}
